System: Candida albicans
assay-method-text: Antifungal activity against Candida albicans ATCC 10231 by M27-A3 protocol-based broth microdilution method
Type: functional
endpoint: MIC (µg/mL)

Some molecules with known MIC results, for comparison:
- molecule: "CCCCC(C)(C)c1cnnn1C(Cn1ccnc1)c1ccc(Cl)cc1Cl (stereo not drawn)"
  unit: "µg/mL"
  MIC: 0.03
- molecule: "CC(=O)c1nnn(C(Cn2ccnc2)c2ccc(Cl)cc2Cl)c1C (stereo not drawn)"
  unit: "µg/mL"
  MIC: 16
- molecule: "CSc1ccc(-c2cnnn2C(Cn2ccnc2)c2ccc(Cl)cc2Cl)cc1 (stereo not drawn)"
  unit: "µg/mL"
  MIC: 4
- molecule: "Clc1ccc(C(Cn2ccnc2)n2nncc2C2CCCCC2)c(Cl)c1 (stereo not drawn)"
  unit: "µg/mL"
  MIC: 16
- molecule: "CCCCCc1c(S(=O)(=O)c2ccccc2)nnn1C(Cn1ccnc1)c1ccc(Cl)cc1Cl (stereo not drawn)"
  unit: "µg/mL"
  MIC: 0.06
- molecule: "CCC(C)n1ncn(-c2ccc(N3CCN(c4ccc(OCC5COC(Cn6cncn6)(c6ccc(Cl)cc6Cl)O5)cc4)CC3)cc2)c1=O (stereo not drawn)"
  unit: "µg/mL"
  MIC: 0.03

[P] N#Cc1nnn(C(Cn2ccnc2)c2ccc(Cl)cc2Cl)c1-c1ccccc1 (stereo not drawn)
[Q] O=C(c1ccccc1)c1nnn(C(Cn2ccnc2)c2ccc(Cl)cc2Cl)c1-c1ccccc1 (stereo not drawn)
Select the item whose MIC value is smaller, choosing between P and Q . Identify your pick by its label.
Q
